# credit: patent US20240182481A1

# TEST SYSTEM: USP1-UAF1 (Homo sapiens, UniProt O94782)
# Sequence (O94782 whole entry): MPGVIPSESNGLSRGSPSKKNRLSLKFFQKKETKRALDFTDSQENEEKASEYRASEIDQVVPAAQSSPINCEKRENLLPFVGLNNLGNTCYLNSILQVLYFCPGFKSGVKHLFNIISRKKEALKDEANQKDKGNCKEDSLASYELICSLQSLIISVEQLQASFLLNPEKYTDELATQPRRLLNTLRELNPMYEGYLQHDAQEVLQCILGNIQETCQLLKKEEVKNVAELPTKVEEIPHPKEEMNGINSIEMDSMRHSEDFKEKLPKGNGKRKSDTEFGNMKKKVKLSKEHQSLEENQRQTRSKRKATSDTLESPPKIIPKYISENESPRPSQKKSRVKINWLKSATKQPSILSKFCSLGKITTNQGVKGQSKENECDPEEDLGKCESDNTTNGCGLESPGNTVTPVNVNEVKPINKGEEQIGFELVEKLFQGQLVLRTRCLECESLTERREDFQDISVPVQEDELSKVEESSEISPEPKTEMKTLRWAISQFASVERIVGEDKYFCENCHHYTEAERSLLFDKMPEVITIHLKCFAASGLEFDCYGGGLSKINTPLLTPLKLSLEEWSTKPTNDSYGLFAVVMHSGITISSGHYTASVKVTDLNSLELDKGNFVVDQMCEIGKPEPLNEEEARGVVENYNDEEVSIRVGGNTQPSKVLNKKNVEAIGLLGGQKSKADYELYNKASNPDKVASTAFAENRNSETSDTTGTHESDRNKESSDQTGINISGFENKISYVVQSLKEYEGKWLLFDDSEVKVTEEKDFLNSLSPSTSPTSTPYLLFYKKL
# Sequence (Q8TAF3 whole entry partner): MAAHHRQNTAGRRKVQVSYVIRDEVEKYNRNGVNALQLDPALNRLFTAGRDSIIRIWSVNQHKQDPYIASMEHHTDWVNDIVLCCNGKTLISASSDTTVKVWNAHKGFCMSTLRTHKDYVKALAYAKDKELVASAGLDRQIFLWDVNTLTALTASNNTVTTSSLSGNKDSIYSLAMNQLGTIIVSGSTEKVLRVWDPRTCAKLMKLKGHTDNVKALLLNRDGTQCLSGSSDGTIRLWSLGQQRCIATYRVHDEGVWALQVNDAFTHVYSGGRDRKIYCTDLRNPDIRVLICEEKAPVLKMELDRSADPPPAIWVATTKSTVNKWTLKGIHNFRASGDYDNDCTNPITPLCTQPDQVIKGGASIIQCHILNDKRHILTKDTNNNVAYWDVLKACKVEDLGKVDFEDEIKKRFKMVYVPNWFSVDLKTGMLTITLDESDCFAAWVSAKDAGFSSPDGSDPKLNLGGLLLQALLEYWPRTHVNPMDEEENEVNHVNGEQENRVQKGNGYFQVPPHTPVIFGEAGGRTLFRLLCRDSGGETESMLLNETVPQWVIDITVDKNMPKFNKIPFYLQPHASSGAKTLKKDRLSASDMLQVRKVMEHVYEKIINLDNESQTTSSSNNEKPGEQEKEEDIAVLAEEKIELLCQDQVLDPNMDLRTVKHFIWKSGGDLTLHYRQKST
# ASSAY PROTOCOL: Ubiquitin Rhodamine assay for USP1-UAF1 activity
# Assay type: biochemical
pIC50: −log10 of the molar value.
# pIC50 per entry

Past entries and their recorded results:
{"INPUT SMILES": "COc1ncnc(C2CC2)c1-c1ncc2[nH]c(C)c(Cc3ccc(-c4nc(C(F)(F)F)cn4C)cc3)c2n1", "pIC50": "> 7.52"}
{"INPUT SMILES": "Cn1cc(C(F)(F)F)nc1-c1ccc(Cc2c[nH]c3cnc(-c4c(OC(F)F)ncnc4C4CC4)nc23)cc1", "pIC50": "> 7.52"}

Shift focus to the following entry.
Qu. // query pIC50 value for entry `CCn1cc(C(F)(F)F)nc1-c1ccc(Cc2c3nc(-c4c(OC)ncnc4C4CC4)ncc3nn2C)cc1`
Ans. 7.00 to 7.52
